Reference source: patent US20260242478A1

Each entry below carries its recorded Anti-PSMA Fab signal in the presence of PSMA.
Molecular target: T1, Anti-PSMA Fab (SEQ ID NOs: 19, 20)
T1 construct: Biotinylated and captured on neutravidin coated plates in the phage ELISA; also called 006 PSMA Fab
Assay: phage binding ELISA; Fab-coated wells pre-incubated with PSMA antigen (competitor: PSMA), then clonal phage, anti-M13 HRP detection
Give the figure by itself; no unit, no explanation.

# annotated cases, reported Anti-PSMA Fab signal in the presence of PSMA shown
> print(dat)
                                     binder  reported.result
1  NCWWHDFRAGHVVC (tested as crude phage supernatant) [Phage-1723 (clonal phage displaying the peptide of SEQ ID NO: 2007)]           0.0972
2  NCFFAADIHWNFCT (tested as crude phage supernatant) [Phage-1731 (clonal phage displaying the peptide of SEQ ID NO: 2015)]             0.18

Would you kindly look at the next entry?
**Query** Query Anti-PSMA Fab signal in the presence of PSMA for FVPCIPSHWLCPIW (tested as crude phage supernatant) [Phage-1741 (clonal phage displaying the peptide of SEQ ID NO: 2037)]
**Result** 0.292
